measured-target: wild type and amino acid substituted PPO enzyme (Amaranthus tuberculatus, UniProt Q0NZW9, F204I/L400A)
protocol-notes: biochemical
condition: IC50 (M)
property-name: IC50 (M)

smiles_text=C#CCN1C(=O)C(F)(F)Oc2cc(F)c(-n3c(=O)n(C)c(=S)n(C)c3=O)cc21 property_name=IC50 endpoint_result=4.57e-11

----------
measured-target: wild type and amino acid substituted PPO enzyme (Amaranthus tuberculatus, UniProt Q0NZW9, F420M/L397A)
Sequence (Q0NZW9 1-534 L397A/F420M): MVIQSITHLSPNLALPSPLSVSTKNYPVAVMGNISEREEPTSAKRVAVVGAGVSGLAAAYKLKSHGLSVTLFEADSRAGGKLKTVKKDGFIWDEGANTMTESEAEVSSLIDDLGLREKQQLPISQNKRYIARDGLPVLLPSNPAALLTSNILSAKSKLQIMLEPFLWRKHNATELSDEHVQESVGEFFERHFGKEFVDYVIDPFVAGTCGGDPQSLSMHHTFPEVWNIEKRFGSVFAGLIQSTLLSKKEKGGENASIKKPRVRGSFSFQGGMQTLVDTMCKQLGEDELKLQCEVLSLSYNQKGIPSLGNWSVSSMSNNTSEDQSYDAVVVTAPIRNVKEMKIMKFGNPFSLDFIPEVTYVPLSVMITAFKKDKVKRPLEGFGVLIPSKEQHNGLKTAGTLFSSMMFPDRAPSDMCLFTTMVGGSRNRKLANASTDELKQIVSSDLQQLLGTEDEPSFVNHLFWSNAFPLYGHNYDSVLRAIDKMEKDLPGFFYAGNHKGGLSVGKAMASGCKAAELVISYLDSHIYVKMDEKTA
protocol-notes: biochemical
condition: IC50 (M)
property-name: IC50 (M)

smiles_text=C#CCN1C(=O)C(F)(F)Oc2cc(F)c(-n3c(=O)n(C)c(=S)n(C)c3=O)cc21 measurement_units=M endpoint_result=4.53e-09

----------
measured-target: wild type and amino acid substituted PPO enzyme (Amaranthus tuberculatus, UniProt Q0NZW9, F204I/F420V)
protocol-notes: biochemical
condition: IC50 (M)
property-name: IC50

smiles_text=C#CCN1C(=O)C(F)(F)Oc2cc(F)c(-n3c(=O)n(C)c(=S)n(C)c3=O)cc21 endpoint_result="4.69e-09 M"

----------
measured-target: wild type and amino acid substituted PPO enzyme (Amaranthus tuberculatus, UniProt Q0NZW9, F420V/L397T)
protocol-notes: biochemical
condition: IC50 (M)
property-name: IC50 (M)

smiles_text=C#CCN1C(=O)C(F)(F)Oc2cc(F)c(-n3c(=O)n(C)c(=S)n(C)c3=O)cc21 endpoint_result=1.31e-08

----------
measured-target: wild type and amino acid substituted PPO enzyme (Amaranthus tuberculatus, UniProt Q0NZW9, F420V/F457M)
protocol-notes: biochemical
condition: IC50 (M)
property-name: IC50 (M)

smiles_text=C#CCN1C(=O)C(F)(F)Oc2cc(F)c(-n3c(=O)n(C)c(=S)n(C)c3=O)cc21 endpoint_result=1.02e-09

----------
measured-target: wild type and amino acid substituted PPO enzyme (Amaranthus tuberculatus, UniProt Q0NZW9, F204I/F420A/F457M/L400A)
protocol-notes: biochemical
condition: IC50 (M)
property-name: IC50 (M)

smiles_text=C#CCN1C(=O)C(F)(F)Oc2cc(F)c(-n3c(=O)n(C)c(=S)n(C)c3=O)cc21 measurement_units=M endpoint_result=3.69e-08

----------
Listing of recorded pIC50 by entry.
measured-target: wild type and amino acid substituted PPO enzyme (Amaranthus tuberculatus)
protocol-notes: biochemical
pIC50: −log10 of the molar value.
property-name: pIC50

smiles_text=C#CCN1C(=O)C(F)(F)Oc2cc(F)c(-n3c(=O)n(C)c(=S)n(C)c3=O)cc21 measured_target="wild type and amino acid substituted PPO enzyme (Amaranthus tuberculatus)" property_name=pIC50 endpoint_result=8.67
smiles_text=CC(C)N(C)S(=O)(=O)NC(=O)c1cc(-n2c(=O)cc(C(F)(F)F)n(C)c2=O)c(F)cc1Cl measured_target="wild type and amino acid substituted PPO enzyme (Amaranthus tuberculatus)" property_name=pIC50 endpoint_result=5.80

----------
measured-target: wild type and amino acid substituted PPO enzyme (Amaranthus tuberculatus, UniProt Q0NZW9, F420M/L397S)
protocol-notes: biochemical
condition: IC50 (M)
property-name: IC50 (M)

smiles_text=C#CCN1C(=O)C(F)(F)Oc2cc(F)c(-n3c(=O)n(C)c(=S)n(C)c3=O)cc21 endpoint_result=3.33e-09

----------
measured-target: wild type and amino acid substituted PPO enzyme (Amaranthus tuberculatus, UniProt Q0NZW9, F420M/L397C)
protocol-notes: biochemical
condition: IC50 (M)
property-name: IC50 (M)

smiles_text=C#CCN1C(=O)C(F)(F)Oc2cc(F)c(-n3c(=O)n(C)c(=S)n(C)c3=O)cc21 property_name=IC50 endpoint_result=1.79e-09

----------
measured-target: wild type and amino acid substituted PPO enzyme (Amaranthus tuberculatus, UniProt Q0NZW9, F204I/F457M/T208S)
protocol-notes: biochemical
condition: IC50 (M)
property-name: IC50 (M)

smiles_text=CC(C)N(C)S(=O)(=O)NC(=O)c1cc(-n2c(=O)cc(C(F)(F)F)n(C)c2=O)c(F)cc1Cl property_name=IC50 measurement_units=M endpoint_result=5.11e-11

----------
IC50 listing for selected molecules.
measured-target: wild type and amino acid substituted PPO enzyme (Amaranthus tuberculatus, UniProt Q0NZW9, F420V/L397Q)
protocol-notes: biochemical
condition: IC50 (M)
property-name: IC50 (M)

smiles_text=CC(C)N(C)S(=O)(=O)NC(=O)c1cc(-n2c(=O)cc(C(F)(F)F)n(C)c2=O)c(F)cc1Cl bound_type=> endpoint_result=1e-05
smiles_text=C#CCN1C(=O)C(F)(F)Oc2cc(F)c(-n3c(=O)n(C)c(=S)n(C)c3=O)cc21 bound_type== endpoint_result=1.01e-07

----------
measured-target: wild type and amino acid substituted PPO enzyme (Amaranthus tuberculatus, UniProt Q0NZW9, F204I/F420V/F457M/L400A/R128A)
protocol-notes: biochemical
condition: IC50 (M)
property-name: IC50 (M)

smiles_text=C#CCN1C(=O)C(F)(F)Oc2cc(F)c(-n3c(=O)n(C)c(=S)n(C)c3=O)cc21 endpoint_result=4.05e-07

----------
measured-target: wild type and amino acid substituted PPO enzyme (Amaranthus tuberculatus, UniProt Q0NZW9, F457M/L400A/T208S)
protocol-notes: biochemical
condition: IC50 (M)
property-name: IC50 (M)

smiles_text=C#CCN1C(=O)C(F)(F)Oc2cc(F)c(-n3c(=O)n(C)c(=S)n(C)c3=O)cc21 property_name=IC50 endpoint_result=9.68e-12

----------
measured-target: wild type and amino acid substituted PPO enzyme (Amaranthus tuberculatus, UniProt Q0NZW9, F420V/R128A/T208S)
protocol-notes: biochemical
condition: IC50 (M)
property-name: IC50

smiles_text=C#CCN1C(=O)C(F)(F)Oc2cc(F)c(-n3c(=O)n(C)c(=S)n(C)c3=O)cc21 endpoint_result="1.25e-08 M"
smiles_text=CC(C)N(C)S(=O)(=O)NC(=O)c1cc(-n2c(=O)cc(C(F)(F)F)n(C)c2=O)c(F)cc1Cl endpoint_result="> 1e-05 M"

----------
measured-target: wild type and amino acid substituted PPO enzyme (Amaranthus tuberculatus, UniProt Q0NZW9, F204I/L397D/L400A/T208S)
Sequence (Q0NZW9 1-534 F204I/T208S/L397D/L400A): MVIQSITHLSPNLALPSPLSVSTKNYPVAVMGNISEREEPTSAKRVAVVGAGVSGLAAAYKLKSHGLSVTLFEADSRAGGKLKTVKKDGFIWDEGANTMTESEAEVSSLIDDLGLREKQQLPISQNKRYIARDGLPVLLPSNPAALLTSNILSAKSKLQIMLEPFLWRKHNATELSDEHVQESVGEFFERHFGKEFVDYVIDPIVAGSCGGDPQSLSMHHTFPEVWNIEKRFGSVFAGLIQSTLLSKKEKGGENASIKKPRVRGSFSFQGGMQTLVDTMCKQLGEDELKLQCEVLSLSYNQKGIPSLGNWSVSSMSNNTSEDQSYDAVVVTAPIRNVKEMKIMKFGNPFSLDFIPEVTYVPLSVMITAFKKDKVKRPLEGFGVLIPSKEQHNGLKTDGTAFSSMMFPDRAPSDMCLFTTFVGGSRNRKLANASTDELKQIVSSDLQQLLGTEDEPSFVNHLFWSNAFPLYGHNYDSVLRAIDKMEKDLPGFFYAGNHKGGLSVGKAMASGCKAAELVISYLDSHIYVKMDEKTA
protocol-notes: biochemical
condition: IC50 (M)
property-name: IC50 (M)

smiles_text=C#CCN1C(=O)C(F)(F)Oc2cc(F)c(-n3c(=O)n(C)c(=S)n(C)c3=O)cc21 property_name=IC50 measurement_units=M endpoint_result=2.38e-09

----------
measured-target: wild type and amino acid substituted PPO enzyme (Amaranthus tuberculatus, UniProt Q0NZW9, F204I/F457M)
Sequence (Q0NZW9 1-534 F204I/F457M): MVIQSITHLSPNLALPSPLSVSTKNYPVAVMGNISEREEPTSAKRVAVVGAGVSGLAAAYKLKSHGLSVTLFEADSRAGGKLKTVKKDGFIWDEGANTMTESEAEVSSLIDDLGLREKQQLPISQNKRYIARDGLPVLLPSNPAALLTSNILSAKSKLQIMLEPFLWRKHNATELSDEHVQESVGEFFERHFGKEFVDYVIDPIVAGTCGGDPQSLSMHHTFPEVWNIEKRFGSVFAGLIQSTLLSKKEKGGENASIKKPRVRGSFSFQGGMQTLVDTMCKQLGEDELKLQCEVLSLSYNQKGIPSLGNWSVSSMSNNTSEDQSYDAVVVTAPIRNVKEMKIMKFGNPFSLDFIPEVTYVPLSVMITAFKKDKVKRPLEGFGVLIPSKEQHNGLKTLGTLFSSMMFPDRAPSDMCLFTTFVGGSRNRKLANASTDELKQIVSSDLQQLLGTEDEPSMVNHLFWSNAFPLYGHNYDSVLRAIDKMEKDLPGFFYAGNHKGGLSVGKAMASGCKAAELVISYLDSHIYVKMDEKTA
protocol-notes: biochemical
condition: IC50 (M)
property-name: IC50 (M)

smiles_text=C#CCN1C(=O)C(F)(F)Oc2cc(F)c(-n3c(=O)n(C)c(=S)n(C)c3=O)cc21 property_name=IC50 endpoint_result=7.52e-11
smiles_text=CC(C)N(C)S(=O)(=O)NC(=O)c1cc(-n2c(=O)cc(C(F)(F)F)n(C)c2=O)c(F)cc1Cl property_name=IC50 endpoint_result=1.89e-11
